// values below are reported inhibition at 10 µM
- Tested On: α-chymotrypsin (bovine pancreatic) (Bos taurus)
- Construct: native enzyme from bovine pancreas, commercial, used as received
- Measurement Protocol: biochemical
- Parameters: alpha-chymotrypsin inhibition, SAAPFpNA (100 uM) hydrolysis, absorbance at 410 nm, 25 °C, pH 7.8

Molecule: O=C(NC1CCCCC1)C(c1ccccc1)N(C(=O)CCl)c1ccc2ccc3cccc4ccc1c2c34 (stereo not shown)
inhibition at 10 µM, %: 83.7
//
Molecule: CC(=O)N(Cc1ccccc1)C(C(=O)NC1CCCCC1)c1ccccc1 (stereo not shown)
inhibition at 10 µM, %: 2.4
//
Molecule: Cc1ccc(S(=O)(=O)CNC(=O)C(c2ccccc2)N(Cc2ccccc2)C(=O)CCl)cc1 (stereo not shown)
inhibition at 10 µM, %: 4.7
//
Molecule: CC(C)=CCCC(C)CC(C(=O)NC1CCCCC1)N(Cc1ccccc1)C(=O)CC[C@@H](C)[C@H]1CC[C@H]2[C@@H]3[C@@H](O)C[C@@H]4C[C@H](O)CC[C@]4(C)[C@H]3CC[C@]12C (stereo partly shown)
inhibition at 10 µM, %: 62.3
//
Molecule: O=C(NC1CCCCC1)C(c1ccccc1)N(Cc1ccccc1)C(=O)CCl (stereo not shown)
inhibition at 10 µM, %: 9.2
//
Molecule: O=C(CCl)N(Cc1ccccc1)C1(C(=O)NC2CCCCC2)CCCC1
inhibition at 10 µM, %: 0.2
//
Molecule: O=C(NC1CCCCC1)C(c1ccccc1)N(Cc1ccccc1)C(=O)C1CCCCC1 (stereo not shown)
inhibition at 10 µM, %: 3.8
//
Molecule: CC(C)C(C(=O)NC1CCCCC1)N(Cc1ccccc1)C(=O)CCl (stereo not shown)
inhibition at 10 µM, %: 4.4
//
Molecule: Cc1ccc(S(=O)(=O)CNC(=O)C2(N(Cc3ccccc3)C(=O)CCl)CCCC2)cc1
inhibition at 10 µM, %: 7.1
//
Molecule: CC1=C(C(C(=O)NC2CCCCC2)N(Cc2ccccc2)C(=O)CCl)C(C)(C)CCC1 (stereo not shown)
inhibition at 10 µM, %: 8.9
